Form: system (Bovine Pancreatic Chymotrypsin (Bos taurus, UniProt P00766)), quantity (Ki), values below.

Below, each entry is followed by its recorded Ki result.
[
  {
    "smiles.record": "N=C(N)c1cccc(S(=O)(=O)NCc2cccc(OCCCCCOc3cccc(CNS(=O)(=O)c4cccc(C(=N)N)c4)c3)c2)c1",
    "Ki": "> 100 µM"
  },
  {
    "smiles.record": "N=C(N)c1ccc(C(=O)NCc2ccc(OCCCCCOc3ccc(CNC(=O)c4ccc(C(=N)N)cc4)cc3)cc2)cc1",
    "Ki": "> 100 µM"
  }
]

# input for lookup
Can you look up the measured Ki of "N=C(N)c1ccc2[nH]c(CC(=O)NCc3ccc(OCCCCCOc4ccc(CNC(=O)Cc5nc6cc(C(=N)N)ccc6[nH]5)cc4)cc3)nc2c1" for me?
> 100 µM

----------
target: Human lung tryptase; test: Ki determination, human lung tryptase (Tosyl-Gly-Pro-Arg-pNA substrate); conditions: 50 mM Tris-HCl pH 8.0, 37° C., 1 nM tryptase, 320 μM GPR-pNA; read-out: Experimentally Determined Ki, Tryptase
Ki overview
Value expressed in nM; do not type the unit.

Below, each entry is followed by its recorded Ki result.
[
  {
    "smiles.record": "N=C(N)c1ccc2sc(C(=O)NCc3ccc(OCCCOc4ccc(CNC(=O)c5cc6cc(C(=N)N)ccc6s5)cc4)cc3)cc2c1",
    "Ki / nM": 12
  },
  {
    "smiles.record": "N=C(N)c1ccc2[nH]c(CC(=O)NCc3ccc(OCCCCCOc4ccc(CNC(=O)Cc5nc6cc(C(=N)N)ccc6[nH]5)cc4)cc3)nc2c1",
    "Ki / nM": 9
  },
  {
    "smiles.record": "N=C(N)c1cccc(C(=O)NCc2cccc(OCCCCCOc3cccc(CNC(=O)c4cccc(C(=N)N)c4)c3)c2)c1",
    "Ki / nM": 10
  },
  {
    "smiles.record": "N=C(N)c1cccc(C(=O)NCc2ccc(OCCCCCCOc3ccc(CNC(=O)c4cccc(C(=N)N)c4)cc3)cc2)c1",
    "Ki / nM": 10
  },
  {
    "smiles.record": "N=C(N)c1cccc(C(=O)NCc2ccc(OCCOc3ccc(CNC(=O)c4cccc(C(=N)N)c4)cc3)cc2)c1",
    "Ki / nM": 350
  }
]

Can you look up the measured Ki of "N=C(N)c1cccc(C(=O)NCc2ccc(OCCCCCCCOc3ccc(CNC(=O)c4cccc(C(=N)N)c4)cc3)cc2)c1" for me?
80

Please do the same for "N=C(N)c1ccc(C(=O)NCc2ccc(OCCOc3ccc(CNC(=O)c4ccc(C(=N)N)cc4)cc3)cc2)cc1" as well.
50

----------
biological target: Human lung tryptase; test: Ki determination, human lung tryptase (Tosyl-Gly-Pro-Arg-pNA substrate); conditions: 50 mM Tris-HCl pH 8.0, 37° C., 1 nM tryptase, 320 μM GPR-pNA; read-out: Experimentally Determined Ki, Tryptase
Please respond with Condition met when measured Ki is strictly beneath 30 nM, and with Condition not met in all other cases.

Past entries and their recorded results:
[
  {
    "smiles.record": "CN(Cc1ccc(OCCCOc2ccc(CN(C)S(=O)(=O)c3cccc(C(=N)N)c3)cc2)cc1)S(=O)(=O)c1cccc(C(=N)N)c1",
    "system.name": "Human lung tryptase",
    "qualitative.label": "Condition met"
  },
  {
    "smiles.record": "N=C(N)c1ccc2[nH]c(CC(=O)NCc3ccc(CNCCNCc4ccc(CNC(=O)Cc5nc6cc(C(=N)N)ccc6[nH]5)cc4)cc3)nc2c1",
    "system.name": "Human lung tryptase",
    "qualitative.label": "Condition met"
  },
  {
    "smiles.record": "N=C(N)c1ccc(C(=O)NCc2ccc(OCCCCOc3ccc(CNC(=O)c4ccc(C(=N)N)cc4)cc3)cc2)cc1",
    "system.name": "Human lung tryptase",
    "qualitative.label": "Condition met"
  },
  {
    "smiles.record": "N=C(N)c1ccc(S(=O)(=O)NCc2ccc(OCCCCCCCOc3ccc(CNS(=O)(=O)c4ccc(C(=N)N)cc4)cc3)cc2)cc1",
    "system.name": "Human lung tryptase",
    "qualitative.label": "Condition not met"
  },
  {
    "smiles.record": "N=C(N)c1ccc(S(=O)(=O)NCc2ccc(OCCCCOc3ccc(CNS(=O)(=O)c4ccc(C(=N)N)cc4)cc3)cc2)cc1",
    "system.name": "Human lung tryptase",
    "qualitative.label": "Condition not met"
  }
]

// switching to the query compound
Quick check: does "N=C(N)c1ccc(C(=O)NCc2ccc(OCCCOc3ccc(CNC(=O)c4ccc(CN)cc4)cc3)cc2)cc1" have Ki under 30 nM?
Condition met

----------
target: Human plasma factor Xa (Homo sapiens, UniProt P00742); experiment: Ki determination, human plasma factor Xa (N-Benzoyl-Ile-Glu-Gly-Arg-pNA); details: 50 mM Tris-HCl, pH 7.8, 200 mM NaCl, 0.05% BSA; read-out: Experimentally Determined Ki, Factor Xa
Sequence (P00742 235-488 limits assumed): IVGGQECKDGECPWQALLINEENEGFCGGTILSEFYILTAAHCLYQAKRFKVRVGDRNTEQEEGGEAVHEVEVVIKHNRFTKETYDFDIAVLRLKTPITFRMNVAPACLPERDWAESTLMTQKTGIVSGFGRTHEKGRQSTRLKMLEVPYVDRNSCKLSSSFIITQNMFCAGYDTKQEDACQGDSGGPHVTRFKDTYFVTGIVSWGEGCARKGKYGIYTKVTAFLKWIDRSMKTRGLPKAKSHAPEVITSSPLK
Sequence (P00742 41-179 partner limits assumed): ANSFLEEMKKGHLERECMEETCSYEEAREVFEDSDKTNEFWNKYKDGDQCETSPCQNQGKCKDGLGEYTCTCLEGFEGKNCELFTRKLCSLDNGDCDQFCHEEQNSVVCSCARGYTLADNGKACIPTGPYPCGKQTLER
quantity: pKi
Quick note: pKi values are minus log10 of concentrations in mol/L.

Below, each entry is followed by its recorded pKi result.
[
  {
    "compound": "N=C(N)c1cccc(C(=O)NCc2ccc(OCCCCCCCOc3ccc(CNC(=O)c4cccc(C(=N)N)c4)cc3)cc2)c1 [Example 59]",
    "value.measured": 5.08
  },
  {
    "compound": "N=C(N)c1cccc(S(=O)(=O)NCc2ccc(OCCCOc3ccc(CNS(=O)(=O)c4cccc(C(=N)N)c4)cc3)cc2)c1 [Example 49]",
    "value.measured": 5.13
  },
  {
    "compound": "N=C(N)c1cccc(S(=O)(=O)NCc2ccc(OCCCCCOc3ccc(CNS(=O)(=O)c4cccc(C(=N)N)c4)cc3)cc2)c1 [Example 41]",
    "value.measured": 5.19
  },
  {
    "compound": "N=C(N)c1ccc2[nH]c(CC(=O)NCc3ccc(OCCCCCOc4ccc(CNC(=O)Cc5nc6cc(C(=N)N)ccc6[nH]5)cc4)cc3)nc2c1 [Example 108]",
    "value.measured": 4.72
  },
  {
    "compound": "N=C(N)c1cccc(S(=O)(=O)NCc2cccc(OCCCCCOc3cccc(CNS(=O)(=O)c4cccc(C(=N)N)c4)c3)c2)c1 [Example 75]",
    "value.measured": 5.22
  }
]

# input for lookup
Can you look up the measured pKi of N=C(N)c1ccc(C(=O)NCc2ccc(COCc3ccc(CNC(=O)c4ccc(C(=N)N)cc4)cc3)cc2)cc1 [Example 66] for me?
4.59

----------
molecular target: Human plasma plasmin (Homo sapiens); assay: Ki determination, human plasma plasmin (Tosyl-Gly-Pro-Lys-pNA); details: 100 mM Tris-HCl, pH 7.4, 100 mM NaCl, 0.05% Triton X-100; read-out: Experimentally Determined Ki, Plasmin
Sequence (P00747 581-810 limits assumed): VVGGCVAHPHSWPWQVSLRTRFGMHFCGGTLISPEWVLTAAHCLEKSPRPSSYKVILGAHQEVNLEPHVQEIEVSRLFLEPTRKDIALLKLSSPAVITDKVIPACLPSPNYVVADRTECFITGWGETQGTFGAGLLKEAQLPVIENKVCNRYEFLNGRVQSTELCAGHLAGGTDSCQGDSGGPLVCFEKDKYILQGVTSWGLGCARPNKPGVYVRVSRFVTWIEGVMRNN
Sequence (P00747 97-580 partner limits assumed): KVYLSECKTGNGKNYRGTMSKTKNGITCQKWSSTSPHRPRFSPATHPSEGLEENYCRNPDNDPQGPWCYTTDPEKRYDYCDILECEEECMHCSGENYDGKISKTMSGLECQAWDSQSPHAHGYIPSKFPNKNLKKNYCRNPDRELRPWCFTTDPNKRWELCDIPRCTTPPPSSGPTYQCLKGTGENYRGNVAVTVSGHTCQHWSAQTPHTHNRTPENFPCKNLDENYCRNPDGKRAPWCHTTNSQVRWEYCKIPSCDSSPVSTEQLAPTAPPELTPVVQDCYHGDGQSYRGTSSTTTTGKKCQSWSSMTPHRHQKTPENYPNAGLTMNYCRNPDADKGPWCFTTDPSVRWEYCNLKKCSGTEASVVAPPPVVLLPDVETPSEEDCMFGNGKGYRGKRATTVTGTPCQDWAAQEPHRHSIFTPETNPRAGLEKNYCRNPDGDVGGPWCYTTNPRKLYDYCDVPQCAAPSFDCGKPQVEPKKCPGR
quantity: pKi
Quick note: pKi values are minus log10 of concentrations in mol/L.

[
  {
    "compound": "N=C(N)c1cccc(C(=O)NCc2cccc(OCCCCCOc3cccc(CNC(=O)c4cccc(C(=N)N)c4)c3)c2)c1 [Example 77]",
    "quantity": "pKi",
    "value.measured": 5.37
  },
  {
    "compound": "N=C(N)c1cccc(C(=O)NCc2ccc(OCCOc3ccc(CNC(=O)c4cccc(C(=N)N)c4)cc3)cc2)c1 [Example 65]",
    "quantity": "pKi",
    "value.measured": 4.34
  },
  {
    "compound": "N=C(N)c1cccc(S(=O)(=O)NCc2ccc(OCCOc3ccc(CNS(=O)(=O)c4cccc(C(=N)N)c4)cc3)cc2)c1 [Example 51]",
    "quantity": "pKi",
    "value.measured": 5.70
  },
  {
    "compound": "N=C(N)c1ccc2cc(C(=O)NCc3ccc(OCCOc4ccc(CNC(=O)c5ccc6cc(C(=N)N)ccc6c5)cc4)cc3)ccc2c1 [Example 100]",
    "quantity": "pKi",
    "value.measured": 6.13
  },
  {
    "compound": "N=C(N)c1cccc(S(=O)(=O)NCc2ccc(OCCCOc3ccc(CNS(=O)(=O)c4cccc(C(=N)N)c4)cc3)cc2)c1 [Example 49]",
    "quantity": "pKi",
    "value.measured": 6.13
  },
  {
    "compound": "N=C(N)c1ccc(C(=O)NCc2ccc(OCCCOc3ccc(CNS(=O)(=O)c4cccc(C(=N)N)c4)cc3)cc2)cc1 [Example 86]",
    "quantity": "pKi",
    "value.measured": 6.47
  },
  {
    "compound": "N=C(N)c1ccc(S(=O)(=O)NCc2ccc(OCCCOc3ccc(CNS(=O)(=O)c4ccc(C(=N)N)cc4)cc3)cc2)cc1 [Example 50]",
    "quantity": "pKi",
    "value.measured": 5.21
  },
  {
    "compound": "N=C(N)c1cccc(S(=O)(=O)NCc2ccc(OCCCCCCCOc3ccc(CNS(=O)(=O)c4cccc(C(=N)N)c4)cc3)cc2)c1 [Example 45]",
    "quantity": "pKi",
    "value.measured": 5.00
  },
  {
    "compound": "N=C(N)c1ccc2[nH]c(CC(=O)NCc3ccc(OCCCOc4ccc(CNC(=O)Cc5nc6cc(C(=N)N)ccc6[nH]5)cc4)cc3)nc2c1 [Example 107]",
    "quantity": "pKi",
    "value.measured": 5.68
  },
  {
    "compound": "N=C(N)c1ccc(C(=O)NCc2ccc(OCCCCCCCOc3ccc(CNC(=O)c4ccc(C(=N)N)cc4)cc3)cc2)cc1 [Example 58]",
    "quantity": "pKi",
    "value.measured": 5.42
  }
]

Can you look up the measured pKi of N=C(N)c1ccc2sc(C(=O)NCc3ccc(OCCCOc4ccc(CNC(=O)c5cc6cc(C(=N)N)ccc6s5)cc4)cc3)cc2c1 [Example 117] for me?
4.30

Please do the same for N=C(N)c1ccc2[nH]c(CC(=O)NCc3ccc(OCCCCOc4ccc(CNC(=O)Cc5nc6cc(C(=N)N)ccc6[nH]5)cc4)cc3)nc2c1 [Example 109] as well.
6.96

Please do the same for N=C(N)c1cccc(S(=O)(=O)NCc2ccc(OCCCCOc3ccc(CNS(=O)(=O)c4cccc(C(=N)N)c4)cc3)cc2)c1 [Example 47] as well.
7.22

Please do the same for N=C(N)c1ccc(C(=O)NCc2ccc(COCc3ccc(CNC(=O)c4ccc(C(=N)N)cc4)cc3)cc2)cc1 [Example 66] as well.
5.00

Please do the same for N=C(N)c1ccc(C(=O)NCc2ccc(OCC3(COc4ccc(CNC(=O)c5ccc(C(=N)N)cc5)cc4)CCC3)cc2)cc1 [Example 93] as well.
5.17

Please do the same for N=C(N)c1ccc(C(=O)NCc2ccc(OCCCOc3ccc(CNC(=O)c4cccc(C(=N)N)c4)cc3)cc2)cc1 [Example 85] as well.
5.28

Please do the same for N=C(N)c1cccc(C(=O)NCc2ccc(OCCCCCCOc3ccc(CNC(=O)c4cccc(C(=N)N)c4)cc3)cc2)c1 [Example 57] as well.
4.97

Please do the same for N=C(N)c1cccc(C(=O)NCc2ccc(OCCCCOc3ccc(CNC(=O)c4cccc(C(=N)N)c4)cc3)cc2)c1 [Example 61] as well.
5.22

Please do the same for N=C(N)c1cccc(C(=O)NCc2ccc(OCCCCCCCOc3ccc(CNC(=O)c4cccc(C(=N)N)c4)cc3)cc2)c1 [Example 59] as well.
5.06

Please do the same for N=C(N)c1cccc(C(=O)NCc2ccc(OCCCCCOc3ccc(CNC(=O)c4cccc(C(=N)N)c4)cc3)cc2)c1 [Example 55] as well.
5.12

Please do the same for N=C(N)c1ccc2[nH]c(CC(=O)NCc3ccc(OCCCCCOc4ccc(CNC(=O)Cc5nc6cc(C(=N)N)ccc6[nH]5)cc4)cc3)nc2c1 [Example 108] as well.
5.85

Please do the same for N=C(N)c1ccc(S(=O)(=O)NCc2cccc(OCCCCCOc3cccc(CNS(=O)(=O)c4ccc(C(=N)N)cc4)c3)c2)cc1 [Example 74] as well.
5.43

Numbers sourced from patent US6221914A.
